So I've got a bunch of molecules here, and I need their GI50 values.
- System: KM12
- test details: NCI tumour cell line growth inhibition, 48 h
The source made the active and inactive calls. No stated cut-off is given here; in the data, active = GI50 up to about 1.1 µM and inactive = higher.

Query block: GI50 lookup needed for CC1(Br)C(=O)NC(=O)N([C@H]2C[C@H](O)[C@@H](CO)O2)C1N=[N+]=[N-] (stereo not given in full) , thanks.
Result block: > 100 µM (inactive)

Query block: Please give the measured GI50 for this molecule: CCCCOC(=O)C1C2CCC(O2)C1C(=O)OCCCC (stereo not given)
Result block: > 100 µM (inactive)

Query block: What does the data say about its GI50? Entry: O=C(NO)c1ccc([N+](=O)[O-])cc1
Result block: 64.9 µM (inactive)

Query block: Could you tell me which GI50 is on file for O/N=C/C1c2ccccc2-c2ccccc21 ?
Result block: 17.4 µM (inactive)

Query block: # query: GI50 of entry CCCc1cc(=O)oc2c3c(c4c(c12)OC(C)(C)C=C4)O[C@@H](C)[C@H](C)C3=O
Result block: 13.6 µM (inactive)

Query block: Please give the measured GI50 for this molecule: COc1ccccc1CCc1cc(OC)c(OC)c(OC)c1
Result block: 38.5 µM (inactive)

Query block: For C=C(/C=C/C=C(\CO)CCC=C(C)C)[C@H]1CCC2([C@H](CCCO)/C(=C(/C)C=O)CC[C@]2(C)O)[C@H]1O (stereo not given in full) , what is its reported GI50?
Result block: > 100 µM (inactive)

Query block: Fill in the blank: the reported GI50 of CC(C)CNc1nc(N)nc(O)c1NC=O is ____.
Result block: > 100 µM (inactive)

Query block: Which GI50 value is on record for N#Cc1c(O)c(C=O)c(=O)n2c1[nH]c1ccccc12 ?
Result block: > 100 µM (inactive)

Query block: GET /values?readout=GI50&item= O=C(Nc1ccccc1F)c1cc2ccc(O)cc2o/c1=N\c1ccccc1F
Result block: 1.98 µM (inactive)

Query block: Would you kindly share the measured GI50 for COC1C(O)C(n2ncc3c(SC)nc(SC)nc32)OC1C(O)CO (stereo not given) ?
Result block: > 100 µM (inactive)

Query block: Look up GI50 for this molecule: COC1CC(Br)(C#N)C1 (stereo not given)
Result block: > 100 µM (inactive)

Query block: Need GI50, item O=c1c(Cc2ccc(Cl)cc2)nnc2sc(-c3ccc(-c4ccc(Cl)cc4Cl)o3)nn12
Result block: 76.6 µM (inactive)

Query block: Could you tell me which GI50 is on file for Cc1c(C(=O)OCc2ccccc2)[n+]([O-])c2cc(Cl)c(Cl)cc2[n+]1[O-] ?
Result block: 10.5 µM (inactive)

Query block: May I ask what GI50 has been recorded for CN(CCCN1CCCC1)CCCN(C)C(=O)Cc1ccc(Cl)c(Cl)c1 ?
Result block: 18.7 µM (inactive)

Query block: Quick check: GI50 of CC(C)(C)/N=c1/n(C(C)(C)C)oc(=O)n1C(C)(C)C ?
Result block: > 100 µM (inactive)

Query block: Requested read-out: GI50. Entry: Nc1ccccc1Sc1ccc(Cl)cc1
Result block: 33.4 µM (inactive)

Query block: Can you look up the measured GI50 of N=c1oc2ccc(Cl)cc2cc1C(=O)NCc1ccccc1 for me?
Result block: 43.4 µM (inactive)

Query block: // GI50 lookup, key: CN(C)CCCOc1nc2c(c(=O)n(C)c(=O)n2C)n1C.SC1=NC=NC2=NC=NC12
Result block: 3.85 µM (inactive)

Query block: Given the entry CN1C2(c3ccccc3)C(C(=O)c3ccccc3)=C(C(=O)c3ccccc3)C1(c1ccccc1)c1c(-c3ccccc3)sc(-c3ccccc3)c12 , report its measured GI50.
Result block: > 100 µM (inactive)

Query block: Give the measured GI50 of c1ccc2c(c1)CC1COc3ccccc3C1O2 (stereo not given) .
Result block: 44.2 µM (inactive)

Query block: # query: GI50 of entry CC1=NN(C(=O)Cc2ccccc2)C(=O)/C1=C/c1c(O)ccc2ccccc12
Result block: 68.5 µM (inactive)

Query block: What value of GI50 has been reported for the following molecule? C[C@]12CC[C@@H]3c4ccc(OC(=O)c5ccccc5)cc4CC[C@H]3[C@@H]1CCC2OC(=O)c1cccc2c(=O)c3ccccc3[nH]c12 (stereo not given in full)
Result block: 15.4 µM (inactive)

Query block: Given the entry CCN(CC(COc1ccc2c(c1)[n+]([O-])nc(N)[n+]2[O-])OC(C)=O)C(C)=O (stereo not given) , report its measured GI50.
Result block: 95.5 µM (inactive)

Query block: Requested read-out: GI50. Entry: CN(C)CCCNC(=O)N/N=C/c1ccccc1
Result block: > 100 µM (inactive)

Query block: Name the recorded GI50 for C[C@]12CCC(=O)C=C1CC[C@@H]1C2CC[C@]2(C)c3nn(-c4ccccc4)nc3CC12 (stereo not given in full) .
Result block: > 100 µM (inactive)

Query block: Fill blank: measured GI50 of the molecule N#CC1=C(Cl)NC(Cl)=C(C#N)C1c1c(Cl)cccc1Cl is ____.
Result block: 21.8 µM (inactive)

Query block: Given the molecule CCOC(=O)/C(=C\NC(C)(C)C)c1nc2ccccc2o1 , what is its reported GI50?
Result block: 33.3 µM (inactive)

Query block: I would be grateful if you could share the reported GI50 for O=C(O/N=C1/CCC/C1=C\c1ccccc1)c1ccc([N+](=O)[O-])cc1 .
Result block: > 100 µM (inactive)

Query block: Look up GI50: NC(=O)c1ccc(NS(=O)(=O)c2ccc(N)cc2)nc1
Result block: > 100 µM (inactive)

Data provenance: ChEMBL document CHEMBL1201862
